Source listed as PubChem BioAssay (NCATS).

- PROTOCOL_NOTES: qHTS for Inhibitors of the Functional Ribonucleoprotein Complex (vRNP) of Lassa (LASV) Arenavirus: LASV Primary Screen - GLuc reporter signal (AID 1347082); also: nearly all actives have a fitted effect of over 60% in size
- MEASUREMENT_CONTEXT: LASV minigenome vRNP, Gaussia luciferase reporter; series mostly up to 57.5 µM
Results filed as inconclusive are left out. Activity calls are given as the source filed them. Calls follow the shape of the full dose curve; tested in HEK293 reporter line.
Result category, one only: active, inactive

{"MOLECULE": "COc1ccc2c(c1)c(=O)cc(-c1ccccc1)n2C", "CAT": "inactive"}

Which result was noted for this molecule in the test: COc1c2c(c(C)c3c1C(=O)OC3)O[C@@]1(C)CC[C@@]3(O)C(C)(C)OC(=O)CC[C@]3(C)[C@H]1C2
inactive

Given O=C(O)[C@@H]1C[C@H](C(=O)O)N1 , state the outcome it received in this test.
inactive

Fill in: this test's call for CC12CCC(=O)C=C1C(O)CC1C2CCC2(C)C1CCC2(O)C(=O)CO (centres undefined) is ___
inactive

I'd appreciate the recorded outcome for NC(N)=[N+]1CCc2ccccc2C1 from this test.
inactive

Please let me know the test result on file for C[C@H](NC(=O)/C(C#N)=C/c1ccc(O)c(O)c1)c1ccccc1 .
inactive

Could you check what this test reported for Cc1cc(O)cc(O[C@H]2OC(CO)[C@H](O)[C@@H](O)[C@H]2O)c1 (some centres undefined) ?
inactive

Dear colleague, could you share the recorded outcome for CCN(CC)CCCCNc1ncc2c(n1)N(C)C(=O)N(c1c(Cl)c(OC)cc(OC)c1Cl)C2 when you have a moment?
active
